TARGET_OF_ASSAY: human topoisomerase II (Homo sapiens)
Construct: Topo II was purified from late log phase suspension cultures of HeLa WIS; endogenous in cells; host or cells: HeLa WIS (late log phase suspension cultures); enzyme purified from the cells
Sequence (P11388 whole entry): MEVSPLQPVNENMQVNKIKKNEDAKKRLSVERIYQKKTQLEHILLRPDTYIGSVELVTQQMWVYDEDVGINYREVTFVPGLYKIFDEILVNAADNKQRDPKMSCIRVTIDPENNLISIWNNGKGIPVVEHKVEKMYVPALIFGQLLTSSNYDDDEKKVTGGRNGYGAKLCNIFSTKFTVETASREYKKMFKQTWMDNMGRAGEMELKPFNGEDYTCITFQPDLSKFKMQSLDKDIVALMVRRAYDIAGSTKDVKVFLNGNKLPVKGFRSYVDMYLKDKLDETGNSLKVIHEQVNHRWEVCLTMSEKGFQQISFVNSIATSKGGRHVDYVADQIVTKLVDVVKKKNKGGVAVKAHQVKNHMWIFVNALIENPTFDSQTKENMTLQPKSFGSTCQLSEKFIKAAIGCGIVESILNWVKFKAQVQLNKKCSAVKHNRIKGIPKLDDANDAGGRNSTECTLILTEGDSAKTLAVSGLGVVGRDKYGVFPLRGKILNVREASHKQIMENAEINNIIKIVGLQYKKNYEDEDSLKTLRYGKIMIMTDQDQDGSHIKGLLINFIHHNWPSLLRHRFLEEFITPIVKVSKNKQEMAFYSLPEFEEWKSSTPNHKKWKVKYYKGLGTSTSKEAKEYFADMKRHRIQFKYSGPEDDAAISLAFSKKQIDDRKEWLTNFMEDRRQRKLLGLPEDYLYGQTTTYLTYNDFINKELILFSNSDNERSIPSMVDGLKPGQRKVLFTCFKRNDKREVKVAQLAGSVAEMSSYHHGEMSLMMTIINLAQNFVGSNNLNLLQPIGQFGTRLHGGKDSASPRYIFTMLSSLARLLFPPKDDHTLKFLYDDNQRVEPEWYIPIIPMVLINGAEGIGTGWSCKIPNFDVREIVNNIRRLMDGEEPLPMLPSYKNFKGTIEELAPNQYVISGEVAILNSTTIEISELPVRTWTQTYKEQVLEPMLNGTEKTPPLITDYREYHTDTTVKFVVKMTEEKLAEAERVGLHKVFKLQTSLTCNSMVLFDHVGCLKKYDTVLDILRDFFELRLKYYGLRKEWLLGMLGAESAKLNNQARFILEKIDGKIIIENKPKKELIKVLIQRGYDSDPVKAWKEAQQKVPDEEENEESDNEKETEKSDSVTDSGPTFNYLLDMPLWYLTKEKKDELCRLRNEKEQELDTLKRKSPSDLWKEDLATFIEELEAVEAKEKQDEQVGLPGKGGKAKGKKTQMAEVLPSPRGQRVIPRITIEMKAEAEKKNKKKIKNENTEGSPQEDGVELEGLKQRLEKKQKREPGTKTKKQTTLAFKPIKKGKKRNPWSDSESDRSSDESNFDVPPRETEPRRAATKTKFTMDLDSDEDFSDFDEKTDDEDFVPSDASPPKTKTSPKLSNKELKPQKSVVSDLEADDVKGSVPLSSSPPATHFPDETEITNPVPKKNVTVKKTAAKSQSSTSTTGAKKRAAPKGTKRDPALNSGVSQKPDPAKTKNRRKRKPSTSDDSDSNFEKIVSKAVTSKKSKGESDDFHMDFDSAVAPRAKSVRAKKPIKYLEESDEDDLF
ASSAY: Mammalian Topoisomerase II Inhibition Assay (stabilization of DNA-topo II covalent complex)
Assay type: biochemical
EXPERIMENTAL_CONTEXT: concentration with activity equal to EC50 of mAMSA; 20 min, 37° C; read-out: Topo II EC50
Task for the reader: assign each of the following molecules its reported pEC50.
Give bare numbers, as −log10 of the molar value.

Solved cases below.
STRUCTURE_NOTATION	pEC50
Cc1cc(-c2c(F)cc3c(=O)ccn(C4CC4)c3c2F)cc(C)n1	4.77
Cc1cc(-c2c(F)cc3c(=Nc4ccccn4)ccn(C4CC4)c3c2F)cc(C)n1	5.44
Cc1cc(-c2c(F)cc3c(=NNC(N)=O)ccn(C4CC4)c3c2F)cc(C)n1	5.51

Value sought for every listed molecule: pEC50.
1. Cc1cc(-c2c(F)cc3c(=Nc4ccccc4)ccn(C4CC4)c3c2F)cc(C)n1
2. Cc1cc(-c2c(F)cc3c(=NN)ccn(C4CC4)c3c2F)cc(C)n1

Ans:
5.72
5.77

Quick request: pEC50 for each listed item, please.
1. Cc1cc(-c2c(F)cc3c(=NCCN(C)C)ccn(C4CC4)c3c2F)cc(C)n1
2. Cc1cc(-c2c(F)cc3c(=Nc4ccccc4O)ccn(C4CC4)c3c2F)cc(C)n1

Ans:
4.85
5.80

* * *

TARGET_OF_ASSAY: human topoisomerase II (Homo sapiens)
Construct: Topo II was purified from late log phase suspension cultures of HeLa WIS; endogenous in cells; host or cells: HeLa WIS (late log phase suspension cultures); enzyme purified from the cells
ASSAY: Mammalian Topoisomerase II Inhibition Assay (stabilization of DNA-topo II covalent complex)
Type: biochemical
EXPERIMENTAL_CONTEXT: concentration with activity equal to EC50 of mAMSA; 20 min, 37° C; read-out: Topo II EC50
Description: Mammalian Topoisomerase II Inhibition Assay Procedure The inhibition of human topoisomerase II (hereafter topo II) was quantitated by a procedure adapted from that described by Trask et al., EMBO J., 3, 671-676 (1984). The assay quantitates the amount of topo II covalently complexed by DNA at equilibrium during a topo II reaction. […] The results obtained for representative compounds of the invention in the human topoisomerase II assay procedure expressed as EC50 s (μM) are presented in Table 3.
Criterion: EC50 strictly under 6 µM. Met: Criterion met. Not met: Criterion not met.

Illustrative cases are given below, each with its answer.
MOLECULE	TARGET_OF_ASSAY	ASSIGNED_CATEGORY
Cc1cc(-c2c(F)cc3c(c2F)N(C2CC2)C=CC3=CC#N)cc(C)n1 [Example 8b]	human topoisomerase II (Homo sapiens)	Criterion met
Cc1cc(-c2c(F)cc3c(=NC4CC4)ccn(C4CC4)c3c2F)cc(C)n1 [Example 12]	human topoisomerase II (Homo sapiens)	Criterion met
CC(=O)NN=c1ccn(C2CC2)c2c(F)c(-c3cc(C)nc(C)c3)c(F)cc12 [Example 5]	human topoisomerase II (Homo sapiens)	Criterion not met
Cc1cc(-c2c(F)cc3c(=NNc4ccccn4)ccn(C4CC4)c3c2F)cc(C)n1 [Example 2]	human topoisomerase II (Homo sapiens)	Criterion met
Cc1cc(-c2c(F)cc3c(=NCCCN(C)C)ccn(C4CC4)c3c2F)cc(C)n1 [Example 21]	human topoisomerase II (Homo sapiens)	Criterion met

Q: Is the reported EC50 for Cc1cc(-c2c(F)cc3c(=N)ccn(C4CC4)c3c2F)cc(C)n1 [Example 4] strictly below 6 µM?
Ans: Criterion not met
